# Tested Target: Ribonuclease pancreatic (Bos taurus)
pKi: −log10 of the molar value.
Measured pKi values are reported for all entries that follow.

Molecule: Cc1cn([C@H]2C[C@@H](NC(=O)C(=O)O)[C@@H](CO)O2)c(=O)[nH]c1=O
pKi: 3.88
--
Molecule: Cc1cn([C@H]2C[C@@H](NC(=O)C(N)CO)[C@@H](CO)O2)c(=O)[nH]c1=O (some centres not stated)
pKi: 4.10

###

# Tested Target: Angiogenin (Homo sapiens, UniProt P03950)
# Sequence (P03950 whole entry): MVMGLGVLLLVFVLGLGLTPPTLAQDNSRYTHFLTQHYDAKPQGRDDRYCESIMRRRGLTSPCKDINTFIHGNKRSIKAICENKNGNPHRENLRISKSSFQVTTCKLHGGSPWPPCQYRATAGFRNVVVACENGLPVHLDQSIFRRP
Endpoint Label: Ki

Molecule: Cc1cn([C@H]2C[C@@H](NC(=O)C(N)CO)[C@@H](CO)O2)c(=O)[nH]c1=O (stereo partly specified)
Endpoint Result: 427 µM
